Test system: SK-MEL-2 melanoma
Experiment: NCI-60 one-dose screen, 48 h (100 = growth as untreated, 0 = no growth, -100 = all killed)
Conditions: 10 µM unless noted
About 83,000 compounds went through this panel and 20% of them were active in at least one assay; those are over-represented in the sample as a whole.
Measure name: growth (%)
Answers are plain numbers, in %.

| Smiles record | Unit annotation | growth |
| --- | --- | --- |
| O=C(/C=C/c1cc(CN2CCOCC2)c(O)c2ncccc12)c1cc(CN2CCOCC2)c(O)c2ncccc12 | % | 20.7 |
| COc1cc(-c2ccc3c(c2)NC(=O)/C3=C\c2ccc[nH]2)ccc1O | % | 31.4 |

# growth lookup, item CC1=CC(=NN=c2cc(C)n([O-])c(C)c2)C=C(C)[N+]1=O
84.7

====

Test system: SNB-75 CNS
Assay: NCI-60 one-dose screen, 48 h
Conditions: 10 µM unless noted
About 83,000 compounds went through this panel and 20% of them were active in at least one assay; those are over-represented in the sample as a whole. The source made the active and inactive calls. The calls were made as follows: active = growth percent below 10; inactive = the rest.
Your answer must be one of the following: true (1) = active, false (0) = inactive

// below: answered compounds
| Compound | Group label |
| --- | --- |
| N#CCCN=Nc1c(O)[nH]c2ccc([N+](=O)[O-])cc12 | false (0) |
| O=C(CCN1C(=O)/C(=C/c2ccc(Cl)cc2)SC1=S)NCCCN1CCOCC1 | false (0) |
| O=C(N=Nc1c(O)[nH]c2ccc(Br)cc12)c1cc(-c2ccccc2)on1 | false (0) |

Check the results log: what was the call for O=C(Cc1ccccc1Nc1c(Cl)cccc1Cl)NN1C(=O)/C(=C/c2ccc(Br)cc2)SC1=S ?
false (0)

// same read-out, input: Cc1ccc2c(C(C[N+](=O)[O-])c3ccccc3F)c(-c3ccccc3)[nH]c2c1 (stereo not drawn)
false (0)

What do you have for COC(=O)[C@]12CCC(C)(C)C[C@H]1[C@H]1C(=O)C[C@@H]3[C@@]4(C)c5c([nH]c6ccccc6c5=O)C(C)(C)[C@@H]4CC[C@@]3(C)[C@]1(C)CC2 ?
false (0)

Further, for C#CC(F)(F)[C@]1(O)CC[C@H]2[C@@H]3CCC4=CC(=O)CCC4=C3[C@@H](c3ccc(C(C)=O)cc3)C[C@@]21C ?
false (0)

Also CCCOc1cc2ccccc2cc1C(=O)Nc1nc(N)c2c(ccc3nccc32)[nH]1 , if possible.
true (1)

And the next one, COc1cc(-c2nc(C(=O)NCC(=O)NO)nn2-c2ccc(Cl)cc2)cc(OC)c1OC ?
false (0)

Next entry: CSc1ccc(-c2ccccc(=O)c2O)cc1
false (0)

Also need N#Cc1c(N)n(CCNC(=O)c2ccccc2)c2nc3ccccc3nc12 , thanks.
false (0)

====

What growth was measured for each of the following?
Tested on: NCI-H460 lung
Assay: NCI-60 one-dose screen, 48 h (100 = growth as untreated, 0 = no growth, -100 = all killed)
Conditions: 10 µM unless noted
This is part of a sample that, as a whole, favours compounds with a hit. Of some 83,000 tested, about 20% had one in any assay. Activity calls are given as the source filed them. How the source made its calls: active means growth percent below 10; inactive means the rest.

The following compounds each have a reported value; give each one's growth.
1. COc1ccc(C2Nc3c(c(C(C)(C)C)nn3-c3ccccc3)C(=O)CS2)cc1 (stereo unspecified)
2. C(=C\c1nccc2c1[nH]c1ccccc12)/c1ccccc1
3. Cn1ccnc1C(=O)/C=C/c1ccc(CC(=O)Nc2ccccc2)cc1
4. O=c1ccccc(-c2ccc(-c3ccco3)cc2)c1O
5. Cc1ccc2c(C(C[N+](=O)[O-])c3ccco3)c(-c3ccccc3)[nH]c2c1 (stereo unspecified)
6. NC(=O)c1cc(Cl)ccc1NC(=O)/C=C/c1ccccc1

1: 106% (inactive); 2: 4.91% (active); 3: -19% (active); 4: 2.15% (active); 5: 13.9% (inactive); 6: 12.1% (inactive)

Batch request: growth for each of the following compounds.
1. CCc1nnc(CNc2ccc(Cl)cc2)o1
2. NC(=NCCCC1(c2ccccc2)CCCC1)Nc1ccc(Cl)cc1
3. Cc1cc(N2CCCCC2)nc(NC2CCCC(Nc3ccnc4cc(Cl)ccc34)C2)n1 (stereo unspecified)

100% (inactive)
-32.8% (active)
-64.9% (active)

Please give growth, item by item, for the list that follows.
1. C#CCOc1ccc2ncnc(Nc3cccc(CNC(=O)C=C)c3)c2c1
2. C=CC(=O)Nc1cccc(-c2nc(SC)nc(Nc3cccc(OC)c3)c2C#N)c1

1. 101% [8.25 µM] (inactive)
2. 86% (inactive)
